- experimentalTarget: T1, Clostridium difficile toxin A (Clostridioides difficile …, UniProt P16154)
- T1 construct: also called TcdA
- protocol: SPR
- assayConditions: both partners purified
Collected kon values appear next to each entry.
Enter the number, and then the unit.

Before answering, review these 2 worked examples.
[[record]]
binder = "A26.8 VHH T54W (VHH, source: E. coli TG1, periplasmic extract, purified (IMAC, SEC)) VHH: QVKLEESGGGLVQAGGSLRLSCAASERTFSRYPVAWFRQAPGAEREFVAVISSWGTSTYYADSVKGRFTISRDNAKVTVYLQMNNLKREDTAVYFCAVNSQRTRLQDPNEYDYWGQGTQVTVSS"
valuekind = "kon"
endpointresult = "1.6e+06 M⁻¹ s⁻¹"

[[record]]
binder = "A26.8 VHH Q101K (VHH, source: E. coli TG1, periplasmic extract, purified (IMAC, SEC)) VHH: QVKLEESGGGLVQAGGSLRLSCAASERTFSRYPVAWFRQAPGAEREFVAVISSTGTSTYYADSVKGRFTISRDNAKVTVYLQMNNLKREDTAVYFCAVNSKRTRLQDPNEYDYWGQGTQVTVSS"
valuekind = "kon"
endpointresult = "2.7e+06 M⁻¹ s⁻¹"


For the binder A26.8 VHH T56R, Q101K, T103M (VHH, source: E. coli TG1, periplasmic extract, purified (IMAC, SEC)) VHH: QVKLEESGGGLVQAGGSLRLSCAASERTFSRYPVAWFRQAPGAEREFVAVISSTGRSTYYADSVKGRFTISRDNAKVTVYLQMNNLKREDTAVYFCAVNSKRMRLQDPNEYDYWGQGTQVTVSS , what kon is on record?
1.04e+07 M⁻¹ s⁻¹

For the binder A26.8 VHH D107Y (VHH, source: E. coli TG1, periplasmic extract, purified (IMAC, SEC)) VHH: QVKLEESGGGLVQAGGSLRLSCAASERTFSRYPVAWFRQAPGAEREFVAVISSTGTSTYYADSVKGRFTISRDNAKVTVYLQMNNLKREDTAVYFCAVNSQRTRLQYPNEYDYWGQGTQVTVSS , what kon is on record?
1.6e+06 M⁻¹ s⁻¹

Data origin, for the record: paper PMC5797146
